These data points were gathered from PubChem BioAssay (NCI).

System: BT-549 breast
assay text: NCI-60 one-dose screen, 48 h
condition set: 10 µM unless noted
About 83,000 compounds went through this panel and 20% of them were active in at least one assay; those are over-represented in the sample as a whole. Calls of active or inactive are those of the source. How the source made its calls: active means growth percent below 10; inactive means the rest.
Entry note: the call must match one of active, inactive

Recorded call for NS(=O)(=O)Oc1ccc(-c2sc3cc(O)ccc3c2C(=O)c2ccc(OCCN3CCCCC3)cc2)cc1 ?
inactive

Recorded call for COc1cc2c(cc1OC)-c1ccc3cc4c(cc3c1N(CCCN1CCCCC1)C2)OCO4 ?
inactive

Recorded call for C=CC(=O)Nc1cccc(C)c1Nc1cc(-c2cccnc2Cc2c(C)c(OC)cc(OC)c2C)ncn1 ?
active

Recorded call for CCNCCNc1cc(-c2ccc(C(=O)OC)cc2)c(C#N)c2nc3ccccc3n12 ?
inactive

----------
System: CAKI-1 renal
assay text: NCI-60 one-dose screen, 48 h
condition set: 10 µM unless noted
About 83,000 compounds went through this panel and 20% of them were active in at least one assay; those are over-represented in the sample as a whole. Active and inactive are the calls of the source. The calls were made as follows: active = growth percent below 10; inactive = the rest.
Entry note: the call must match one of active, inactive

For orientation, consider the following solved cases.
molecule	tested on	category label
CCC(O)(C(c1ccccc1)c1ccccn1)C(c1ccccc1)c1ccccn1 (centres undefined)	CAKI-1 renal	inactive
CCNCCNc1cc(-c2cccc(C(F)(F)F)c2)c(C#N)c2nc3ccccc3n12	CAKI-1 renal	active
N#Cc1c(Oc2ccc([N+](=O)[O-])cc2)nc2sc3cc(Cl)ccc3n2c1=N	CAKI-1 renal	inactive
O=C1CCC(N2C(=O)c3cccc(NCCCC4CCN(CCNC(=O)c5cc6c(o5)C(=O)c5ccccc5C6=O)CC4)c3C2=O)C(=O)N1 (centres undefined)	CAKI-1 renal	active

Now take the following molecule into account.
Recorded call for Cc1ccc(NC(=O)C(Cl)Cl)cc1 ?
inactive

----------
System: NCI-H460 lung
assay text: NCI-60 one-dose screen, 48 h
condition set: 10 µM unless noted
Compounds without any hit were thinned out: in the full panel of roughly 83,000, 20% have a hit. Activity calls are given as the source filed them. How the source made its calls: active means growth percent below 10; inactive means the rest.
Entry note: the call must match one of TRUE for active, FALSE for inactive

In [3]: df
Out[3]:
                                   compound  category_label
0  CC/C=C/[C@@H]1C=C[C@@H]2CCC[C@H]2[C@@H]1CC[C@H](O)[C@H](C)N            TRUE

Recorded call for Nc1ccc2c(S(=O)(=O)O)ccc(S(=O)(=O)O)c2c1 ?
FALSE

Recorded call for COc1cc2oc(-c3cccc(C(=O)Nc4ccc(C#N)cc4)c3)cc(=O)c2c(O)c1OC ?
FALSE

Recorded call for O=[N+]([O-])c1cccc(/C=C/c2ccccn2)c1 ?
FALSE

Recorded call for Cc1nc(Nc2cccc(NC(=O)Nc3ccc(Cl)cc3)c2)c2ccccc2n1 ?
FALSE

Recorded call for CCOC(=O)c1sc2ccc(NCc3nc[nH]c3C)cc2c1NC(=O)c1cc(OC)c(OC)c(OC)c1 ?
FALSE

----------
Tested on: HT29 colon
assay text: NCI-60 one-dose screen, 48 h (100 = growth as untreated, 0 = no growth, -100 = all killed)
condition set: 10 µM unless noted
This is part of a sample that, as a whole, favours compounds with a hit. Of some 83,000 tested, about 20% had one in any assay.
measure name: growth (%)
I only need the number, in %, no unit after it.

For orientation, consider the following solved cases.
                                   molecule   tested_on  endpoint_unit  data_value
0  CC(=O)Nc1ccc(-c2cc3c(NCc4ccc(F)cc4)ncnc3s2)cc1  HT29 colon              %         102
1  COc1ccc(/C(C)=C(\c2ccc(Cl)cc2)c2ccc(OCCN3CCCC3)cc2)cc1F  HT29 colon              %       -10.5
2  CCCCC1COc2cccc3c(SCC(=O)N(C)c4cccc(Cl)c4)cc[n+]1c23 (stereo not given)  HT29 colon              %         100

Give growth for the following molecule: Cn1c(NCCc2ccc(O)c(O)c2)nc2c1c(=O)n(Cc1ccc(Cl)cc1)c(=O)n2C
101

Give growth for the following molecule: Nc1c(C(=O)c2ccccc2)nnc2ncnn12
100
